Biological target: CDK8/CycC (Homo sapiens, UniProt P49336)
Construct: purchased Invitrogen PV4402
Sequence (P49336 whole entry): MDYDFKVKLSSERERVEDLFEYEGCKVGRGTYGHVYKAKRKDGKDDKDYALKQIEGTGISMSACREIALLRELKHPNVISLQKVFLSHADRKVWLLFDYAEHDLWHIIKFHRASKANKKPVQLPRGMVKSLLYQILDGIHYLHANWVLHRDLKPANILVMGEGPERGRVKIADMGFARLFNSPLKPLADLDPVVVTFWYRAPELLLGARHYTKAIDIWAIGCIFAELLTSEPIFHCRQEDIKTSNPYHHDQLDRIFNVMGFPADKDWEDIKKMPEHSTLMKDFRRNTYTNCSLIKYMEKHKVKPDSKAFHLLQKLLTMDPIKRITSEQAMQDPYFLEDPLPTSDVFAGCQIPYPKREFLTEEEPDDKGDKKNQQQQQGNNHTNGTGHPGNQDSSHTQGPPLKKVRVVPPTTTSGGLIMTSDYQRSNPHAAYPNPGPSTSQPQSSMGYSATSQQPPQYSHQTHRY
Sequence (P24863 whole entry partner): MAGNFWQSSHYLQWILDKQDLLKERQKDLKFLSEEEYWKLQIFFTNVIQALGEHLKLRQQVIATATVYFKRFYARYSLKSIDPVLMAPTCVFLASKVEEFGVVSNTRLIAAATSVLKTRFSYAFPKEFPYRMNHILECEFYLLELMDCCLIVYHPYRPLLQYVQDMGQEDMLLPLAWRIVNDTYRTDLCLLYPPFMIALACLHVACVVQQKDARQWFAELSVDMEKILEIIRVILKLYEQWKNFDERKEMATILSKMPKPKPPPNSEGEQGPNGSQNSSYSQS
Experiment: FRET based Lanthascreen binding competition assay for CDK8 inhibitory activity
Settings: CDK8 co-expressed with CycC; class symbols; read-out: IC50
property_label: IC50

[
  {
    "compound": "Cc1n[nH]c2ncc(C(=O)N3CCC[C@H]3c3ccc4cn[nH]c4c3)cc12 [compound 230]",
    "property_label": "IC50",
    "measured": "10 to 100 nM"
  },
  {
    "compound": "Cc1n[nH]c2ncc(C(=O)N3CCCC3c3ccncc3)cc12 (centres unmarked) [compound 32]",
    "property_label": "IC50",
    "measured": "100 to 1000 nM"
  },
  {
    "compound": "Cc1n[nH]c2ncc(C(=O)N3CCC(c4ccccc4)C3)cc12 (centres unmarked) [compound 22]",
    "property_label": "IC50",
    "measured": "10 to 100 nM"
  },
  {
    "compound": "Nc1n[nH]c2ccc(C(=O)N3CCCC3c3ccc(Cl)c(F)c3)cc12 (centres unmarked) [compound 167]",
    "property_label": "IC50",
    "measured": "10 to 100 nM"
  },
  {
    "compound": "Cc1n[nH]c2ncc(C(=O)N3CC[C@](O)(c4ccccc4)C3)cc12 [compound 198]",
    "property_label": "IC50",
    "measured": "1000 to 10000 nM"
  },
  {
    "compound": "COc1cccc([C@@H]2CCCN2C(=O)c2cnc3[nH]nc(C)c3c2)c1 [compound 222]",
    "property_label": "IC50",
    "measured": "100 to 1000 nM"
  },
  {
    "compound": "Cc1n[nH]c2ccc(C(=O)N3CCC[C@@H]3c3ccc(Br)cc3)nc12 [compound 53]",
    "property_label": "IC50",
    "measured": "100 to 1000 nM"
  },
  {
    "compound": "Cc1n[nH]c2ncc(C(=O)N3CCO[C@@](C)(c4ccc(Cl)cc4)C3)cc12 [compound 214]",
    "property_label": "IC50",
    "measured": "1000 to 10000 nM"
  },
  {
    "compound": "Cc1n[nH]c2ncc(C(=O)N3CC[C@H]3c3ccc(F)cc3)cc12 [compound 56]",
    "property_label": "IC50",
    "measured": "10 to 100 nM"
  },
  {
    "compound": "Cc1n[nH]c2ncc(C(=O)N3CC(O)CC3c3ccc(F)cc3)cc12 (centres unmarked) [compound 127]",
    "property_label": "IC50",
    "measured": "100 to 1000 nM"
  },
  {
    "compound": "Cc1n[nH]c2ccc(C(=O)N3CCC[C@H]3c3ccc(Br)cc3)nc12 [compound 54]",
    "property_label": "IC50",
    "measured": "< 10 nM"
  },
  {
    "compound": "Cc1n[nH]c2ncc(C(=O)N3CCC[C@H]3c3ccc(F)cc3)cc12 [compound 43]",
    "property_label": "IC50",
    "measured": "< 10 nM"
  },
  {
    "compound": "O=C(c1cnc2[nH]nc(C3CC3)c2c1)N1CCC[C@@H]1c1ccc(Cl)cc1 [compound 153]",
    "property_label": "IC50",
    "measured": "100 to 1000 nM"
  },
  {
    "compound": "Cc1n[nH]c2ncc(C(=O)N3CCC[C@H]3c3ccc(CN)cc3)cc12 [compound 262]",
    "property_label": "IC50",
    "measured": "100 to 1000 nM"
  },
  {
    "compound": "CCCc1n[nH]c2ccc(C(=O)N3CCC[C@H]3c3ccc(Cl)cc3)cc12 [compound 11]",
    "property_label": "IC50",
    "measured": "< 10 nM"
  },
  {
    "compound": "Cc1n[nH]c2ncc(C(=O)N3CCCC(c4ccc(Cl)cc4)C3)cc12 (centres unmarked) [compound 67]",
    "property_label": "IC50",
    "measured": "10 to 100 nM"
  },
  {
    "compound": "Cc1n[nH]c2ncc(C(=O)N3CCCC3c3ccccn3)cc12 (centres unmarked) [compound 30]",
    "property_label": "IC50",
    "measured": "100 to 1000 nM"
  },
  {
    "compound": "Cc1n[nH]c2ncc(C(=O)N3CCC[C@H]3c3ccc4[nH]ncc4c3)cc12 [compound 245]",
    "property_label": "IC50",
    "measured": "10 to 100 nM"
  },
  {
    "compound": "Nc1n[nH]c2ccc(C(=O)N3CCCC(c4ccc(Cl)cc4)C3)cc12 (centres unmarked) [compound 116]",
    "property_label": "IC50",
    "measured": "100 to 1000 nM"
  },
  {
    "compound": "Cc1n[nH]c2ncc(C(=O)N3CCCCC[C@H]3c3cccc(F)c3)cc12 [compound 150]",
    "property_label": "IC50",
    "measured": "100 to 1000 nM"
  },
  {
    "compound": "Cc1n[nH]c2ncc(C(=O)N3CCCC3c3ccccc3)cc12 (centres unmarked) [compound 20]",
    "property_label": "IC50",
    "measured": "< 10 nM"
  },
  {
    "compound": "Cc1n[nH]c2ncc(C(=O)N3CC[C@@H]3c3ccc(Cl)cc3)cc12 [compound 240]",
    "property_label": "IC50",
    "measured": "1000 to 10000 nM"
  },
  {
    "compound": "Cc1n[nH]c2ncc(C(=O)N3C[C@@H](O)[C@H](c4ccc(Cl)cc4)C3)cc12 [compound 255]",
    "property_label": "IC50",
    "measured": "1000 to 10000 nM"
  },
  {
    "compound": "Cc1n[nH]c2ncc(C(=O)N3CCCC[C@H]3c3ccccc3)cc12 [compound 28]",
    "property_label": "IC50",
    "measured": "10 to 100 nM"
  },
  {
    "compound": "Nc1n[nH]c2ccc(C(=O)N3CC[C@@H](c4ccccc4)C3)cc12 [compound 88]",
    "property_label": "IC50",
    "measured": "100 to 1000 nM"
  },
  {
    "compound": "Cc1n[nH]c2ncc(C(=O)N3CCC[C@H]3c3ccc(C(C)C)cc3)cc12 [compound 196]",
    "property_label": "IC50",
    "measured": "< 10 nM"
  },
  {
    "compound": "O=C(c1cnc2[nH]ncc2c1)N1CCC[C@H]1c1ccc(Cl)cc1 [compound 239]",
    "property_label": "IC50",
    "measured": "100 to 1000 nM"
  },
  {
    "compound": "Nc1n[nH]c2ccc(C(=O)N3CCCCC3c3ccccc3)cc12 (centres unmarked) [compound 82]",
    "property_label": "IC50",
    "measured": "10 to 100 nM"
  },
  {
    "compound": "O=C(c1cnc2[nH]nc(C3CC3)c2c1)N1CCCCC1c1ccccc1 (centres unmarked) [compound 168]",
    "property_label": "IC50",
    "measured": "100 to 1000 nM"
  },
  {
    "compound": "Cc1n[nH]c2ncc(C(=O)N3CCC[C@@H]3c3ccc(C#N)cc3)cc12 [compound 248]",
    "property_label": "IC50",
    "measured": "1000 to 10000 nM"
  },
  {
    "compound": "Cc1n[nH]c2ccc(C(=O)N3CCC[C@H]3c3ccc(Br)cc3)cc12 [compound 49]",
    "property_label": "IC50",
    "measured": "< 10 nM"
  },
  {
    "compound": "Cc1n[nH]c2cc(F)c(C(=O)N3CCC[C@@H]3c3ccc(Cl)cc3)cc12 [compound 203]",
    "property_label": "IC50",
    "measured": "1000 to 10000 nM"
  },
  {
    "compound": "O=C(c1cnc2[nH]nc(C(F)(F)F)c2c1)N1CCCC[C@@H]1c1ccccc1 [compound 183]",
    "property_label": "IC50",
    "measured": "100 to 1000 nM"
  },
  {
    "compound": "O=C(c1cnc2[nH]nc(C(F)(F)F)c2c1)N1CCCC1c1ccc(Cl)cc1 (racemic) [compound 177]",
    "property_label": "IC50",
    "measured": "10 to 100 nM"
  },
  {
    "compound": "O=C(c1cnc2[nH]nc(C(F)(F)F)c2c1)N1CCC[C@H]1c1ccc(Cl)cc1 (stereo in doubt) [compound 180]",
    "property_label": "IC50",
    "measured": "< 10 nM"
  }
]
